These measurements were taken from patent US9718792B2.

# IC50 listing for each entry below
target: P. aeruginosa LpxC (Pseudomonas aeruginosa (strain ATCC 15692 / DSM 22644 / CIP 104116 / JCM 14847 / LMG 12228 / 1C / PRS 101 / PAO1), UniProt P47205); assay: P. aeruginosa LpxC Inhibition Assay; type: biochemical; details: 1 nM P. aeruginosa LpxC, 2 μM substrate, LC-MS/MS; read-out: PA LpxC IC50
observation.type: IC50

>  <molecule>
CC(C)(O)[C@H]1C[C@@H](C#Cc2ccc(C3=NO[C@@H](C[C@](C)(C(=O)NO)S(C)(=O)=O)C3)cc2)C1 [Compound 39B]

>  <observation.type>
IC50

>  <value>
2 nM

$$$$
>  <molecule>
C[C@@](C[C@H]1CC(c2ccc(-c3ccc(OCCO)cc3)cc2)=NO1)(C(=O)NO)S(C)(=O)=O [Compound 50]

>  <observation.type>
IC50

>  <value>
0.7 nM

$$$$
>  <molecule>
COCCOc1ccc(-c2ccc(C3=NO[C@@H](C[C@](C)(C(=O)NO)S(C)(=O)=O)C3)cc2)cc1 [Compound 48]

>  <observation.type>
IC50

>  <value>
1 nM

$$$$
>  <molecule>
Cc1cnccc1-c1ccc(C2=NO[C@@H](C[C@](C)(C(=O)NO)S(C)(=O)=O)C2)cc1 [Compound 85]

>  <observation.type>
IC50

>  <value>
< 0.5 nM

$$$$
>  <molecule>
CC(CC1CC(c2ccc(Br)cc2)=NO1)(C(=O)NO)S(C)(=O)=O (single isomer, unassigned) [Compound 1-B]

>  <observation.type>
IC50

>  <value>
< 0.5 nM

$$$$
>  <molecule>
COC1CC(C#Cc2ccc(C3=NO[C@@H](C[C@](C)(C(=O)NO)S(C)(=O)=O)C3)cc2)C1 (stereo partly shown) [Compound 44]

>  <observation.type>
IC50

>  <value>
0.8 nM

$$$$
>  <molecule>
C[C@@H](O)c1ccc(-c2ccc(C3=NO[C@@H](C[C@](C)(C(=O)NO)S(C)(=O)=O)C3)cc2)cc1 [Compound 49]

>  <observation.type>
IC50

>  <value>
1 nM

$$$$

---

Biological target: P. aeruginosa LpxC (Pseudomonas aeruginosa (strain ATCC 15692 / DSM 22644 / CIP 104116 / JCM 14847 / LMG 12228 / 1C / PRS 101 / PAO1), UniProt P47205)
Assay: P. aeruginosa LpxC Inhibition Assay
Assay type: biochemical
Settings: 1 nM P. aeruginosa LpxC, 2 μM substrate, LC-MS/MS; read-out: PA LpxC IC50
From the text: The P. aeruginosa LpxC protein is produced according to the general method of Hyland et al (Journal of Bacteriology 1997 179, 2029-2037: Cloning, expression and purification of UDP-3-O-acyl-GIcNAc deacetylase from Pseudomonas aeruginosa: a metalloamidase of the lipid A biosynthesis pathway). The LC-MS/MS method for quantitation of LpxC product was developed using an Agilent 1200 Capillary HPLC system coupled to an Applied Biosystems MDS Sciex 4000QTRAP mass spectrometer. […]
In this section we review reported IC50 values for a set of compounds.

>  <compound>
C/C=C/c1ccc(C2=NO[C@@H](C[C@](C)(C(=O)NO)S(C)(=O)=O)C2)cc1

>  <units.text>
nM

>  <operator>
=

>  <IC50>
0.8

$$$$
>  <compound>
C[C@@](C[C@H]1CC(c2ccc(-c3cnsc3)cc2)=NO1)(C(=O)NO)S(C)(=O)=O

>  <units.text>
nM

>  <operator>
<

>  <IC50>
0.5

$$$$
>  <compound>
C[C@@H](O)Cc1cc(F)c(-c2ccc(C3=NO[C@@H](C[C@](C)(C(=O)NO)S(C)(=O)=O)C3)cc2F)c(F)c1

>  <units.text>
nM

>  <operator>
<

>  <IC50>
0.5

$$$$
>  <compound>
C[C@@](C[C@H]1CC(c2ccc(CCCCF)cc2)=NO1)(C(=O)NO)S(C)(=O)=O

>  <units.text>
nM

>  <operator>
=

>  <IC50>
2

$$$$
>  <compound>
COc1ccc(-c2ccc(C3=NO[C@@H](C[C@](C)(C(=O)NO)S(C)(=O)=O)C3)cc2F)c(C)c1

>  <units.text>
nM

>  <operator>
<

>  <IC50>
0.5

$$$$
>  <compound>
CCSc1ccc(C2=NO[C@@H](C[C@](C)(C(=O)NO)S(C)(=O)=O)C2)cc1

>  <units.text>
nM

>  <operator>
=

>  <IC50>
0.9

$$$$
>  <compound>
C[C@@](C[C@H]1CC(c2ccc(-c3cccc(CO)c3)cc2)=NO1)(C(=O)NO)S(C)(=O)=O

>  <units.text>
nM

>  <operator>
<

>  <IC50>
0.5

$$$$
>  <compound>
COCC1CC(C#Cc2ccc(C3=NO[C@@H](C[C@](C)(C(=O)NO)S(C)(=O)=O)C3)cc2)C1 (stereo partly shown) [Compound 52]

>  <units.text>
nM

>  <operator>
=

>  <IC50>
0.8

$$$$
>  <compound>
C/C=C(\F)c1ccc(C2=NO[C@@H](C[C@](C)(C(=O)NO)S(C)(=O)=O)C2)cc1

>  <units.text>
nM

>  <operator>
=

>  <IC50>
0.6

$$$$
>  <compound>
C[C@@](C[C@H]1CC(c2ccc(C#CC3CC(F)C3)cc2)=NO1)(C(=O)NO)S(C)(=O)=O (stereo partly shown)

>  <units.text>
nM

>  <operator>
=

>  <IC50>
0.7

$$$$
>  <compound>
CC(C)c1cc(-c2ccc(C3=NO[C@@H](C[C@](C)(C(=O)NO)S(C)(=O)=O)C3)cc2F)ccn1

>  <units.text>
nM

>  <operator>
<

>  <IC50>
0.5

$$$$
>  <compound>
CC#Cc1ccc(C2=NOC(CC(C)(C(=O)NO)S(C)(=O)=O)C2)c(F)c1 (single isomer, unassigned)

>  <units.text>
nM

>  <operator>
=

>  <IC50>
0.6

$$$$
>  <compound>
C[C@@H](O)Cc1ccc(-c2ccc(C3=NO[C@@H](C[C@](C)(C(=O)NO)S(C)(=O)=O)C3)cc2)cc1

>  <units.text>
nM

>  <operator>
=

>  <IC50>
0.6

$$$$

---

Target: P. aeruginosa LpxC (Pseudomonas aeruginosa (strain ATCC 15692 / DSM 22644 / CIP 104116 / JCM 14847 / LMG 12228 / 1C / PRS 101 / PAO1), UniProt P47205)
Experiment: P. aeruginosa LpxC Inhibition Assay
Format: biochemical
Settings: 1 nM P. aeruginosa LpxC, 2 μM substrate, LC-MS/MS; read-out: PA LpxC IC50
From the text: The P. aeruginosa LpxC protein is produced according to the general method of Hyland et al (Journal of Bacteriology 1997 179, 2029-2037: Cloning, expression and purification of UDP-3-O-acyl-GIcNAc deacetylase from Pseudomonas aeruginosa: a metalloamidase of the lipid A biosynthesis pathway). The LC-MS/MS method for quantitation of LpxC product was developed using an Agilent 1200 Capillary HPLC system coupled to an Applied Biosystems MDS Sciex 4000QTRAP mass spectrometer. […]
compounds and their reported IC50

>  <compound>
C[C@@](C[C@H]1CC(c2ccc(-c3ccc(C(F)(F)F)nc3)cc2)=NO1)(C(=O)NO)S(C)(=O)=O

>  <operator>
<

>  <IC50 [nM]>
0.5

$$$$
>  <compound>
CC(C)(O)c1ccc(-c2ccc(C3=NO[C@@H](C[C@](C)(C(=O)NO)S(C)(=O)=O)C3)cc2F)cc1

>  <operator>
<

>  <IC50 [nM]>
0.5

$$$$
>  <compound>
C[C@@](C[C@H]1CC(c2ccc(-c3cnccc3F)cc2)=NO1)(C(=O)NO)S(C)(=O)=O

>  <operator>
<

>  <IC50 [nM]>
0.5

$$$$
>  <compound>
CC(CC1CC(c2ccc(C#CC3CC3)cn2)=NO1)(C(=O)NO)S(C)(=O)=O (single isomer, unassigned)

>  <operator>
=

>  <IC50 [nM]>
4

$$$$
>  <compound>
C[C@@](C[C@H]1CC(c2ccc(C#CC3CC(CC#N)C3)cc2)=NO1)(C(=O)NO)S(C)(=O)=O (stereo partly shown)

>  <operator>
<

>  <IC50 [nM]>
0.5

$$$$
>  <compound>
CC#Cc1ccc(C2=NOC(CC(C)(C(=O)NO)S(C)(=O)=O)C2)cc1F (single isomer, unassigned)

>  <operator>
=

>  <IC50 [nM]>
2

$$$$
>  <compound>
C[C@@](C[C@H]1CC(c2ccc(-c3ccncc3F)cc2)=NO1)(C(=O)NO)S(C)(=O)=O

>  <operator>
=

>  <IC50 [nM]>
0.5

$$$$
>  <compound>
CCc1ccc(C2=NO[C@@H](C[C@](C)(C(=O)NO)S(C)(=O)=O)C2)cc1F

>  <operator>
<

>  <IC50 [nM]>
0.5

$$$$
>  <compound>
C[C@@](C[C@H]1CC(c2ccc(CCCF)cc2)=NO1)(C(=O)NO)S(C)(=O)=O

>  <operator>
=

>  <IC50 [nM]>
2

$$$$
>  <compound>
CC(C)(O)c1cc(-c2ccc(C3=NO[C@@H](C[C@](C)(C(=O)NO)S(C)(=O)=O)C3)cc2)ccn1

>  <operator>
=

>  <IC50 [nM]>
2

$$$$
>  <compound>
CC#Cc1ccc(C2=NO[C@@H](C[C@](C)(C(=O)NO)S(C)(=O)=O)C2)cc1

>  <operator>
=

>  <IC50 [nM]>
0.8

$$$$
>  <compound>
C[C@@H](O)Cc1ccc(-c2ccc(C3=NO[C@@H](C[C@](C)(C(=O)NO)S(C)(=O)=O)C3)cc2F)c(F)c1

>  <operator>
<

>  <IC50 [nM]>
0.5

$$$$
>  <compound>
C[C@@](C[C@H]1CC(c2ccc(C#CC3CC3)cc2)=NO1)(C(=O)NO)S(C)(=O)=O

>  <operator>
=

>  <IC50 [nM]>
0.7

$$$$
>  <compound>
C[C@@H](O)Cc1cc(F)c(-c2ccc(C3=NO[C@@H](C[C@](C)(C(=O)NO)S(C)(=O)=O)C3)cc2)c(F)c1

>  <operator>
<

>  <IC50 [nM]>
0.5

$$$$
>  <compound>
C[C@@](C[C@H]1CC(c2ccc(-c3ccc(S(C)(=O)=O)cc3)cc2)=NO1)(C(=O)NO)S(C)(=O)=O

>  <operator>
<

>  <IC50 [nM]>
0.5

$$$$
>  <compound>
CCc1ccc(C2=NO[C@@H](C[C@](C)(C(=O)NO)S(C)(=O)=O)C2)c(F)c1

>  <operator>
=

>  <IC50 [nM]>
0.6

$$$$
>  <compound>
CC#CCOc1ccc(C2=NOC(CC(C)(C(=O)NO)S(C)(=O)=O)C2)cc1 (single isomer, unassigned)

>  <operator>
=

>  <IC50 [nM]>
24

$$$$
>  <compound>
CC(CC1CC(c2ccc(C#CC3CC3)c(F)c2)=NO1)(C(=O)NO)S(C)(=O)=O (single isomer, unassigned)

>  <operator>
=

>  <IC50 [nM]>
1

$$$$
>  <compound>
CC(CC1CC(c2ccc(C3CC3)cc2)=NO1)(C(=O)NO)S(C)(=O)=O (single isomer, unassigned)

>  <operator>
=

>  <IC50 [nM]>
7

$$$$
>  <compound>
C[C@@](C[C@H]1CC(c2ccc(-c3ccc(CO)cc3)c(F)c2)=NO1)(C(=O)NO)S(C)(=O)=O

>  <operator>
=

>  <IC50 [nM]>
0.6

$$$$
>  <compound>
C[C@H](O)Cc1ccc(-c2ccc(C3=NO[C@@H](C[C@](C)(C(=O)NO)S(C)(=O)=O)C3)cc2)cc1

>  <operator>
=

>  <IC50 [nM]>
1

$$$$
>  <compound>
CCCc1ccc(C2=NO[C@@H](C[C@](C)(C(=O)NO)S(C)(=O)=O)C2)cc1

>  <operator>
<

>  <IC50 [nM]>
0.5

$$$$
>  <compound>
CC(CC1CC(c2ccc(-c3ccccc3)cc2)=NO1)(C(=O)NO)S(C)(=O)=O (single isomer, unassigned)

>  <operator>
=

>  <IC50 [nM]>
1

$$$$
>  <compound>
C[C@@](C[C@H]1CC(c2ccc(-c3ccc(CO)nc3)c(F)c2)=NO1)(C(=O)NO)S(C)(=O)=O

>  <operator>
=

>  <IC50 [nM]>
5

$$$$
>  <compound>
CC#Cc1ccc(C2=NO[C@@H](C[C@](C)(C(=O)NO)S(C)(=O)=O)C2)c(F)c1

>  <operator>
<

>  <IC50 [nM]>
0.5

$$$$
>  <compound>
COc1ccc(-c2ccc(C3=NO[C@@H](C[C@](C)(C(=O)NO)S(C)(=O)=O)C3)cc2)c(F)c1

>  <operator>
<

>  <IC50 [nM]>
0.5

$$$$
>  <compound>
C[C@@](C[C@H]1CC(c2ccc(-c3ccc(-n4nccn4)cc3)cc2)=NO1)(C(=O)NO)S(C)(=O)=O

>  <operator>
<

>  <IC50 [nM]>
0.5

$$$$
>  <compound>
C[C@@](C[C@H]1CC(c2ccc(-c3ccc([C@@H](O)CO)cc3)cc2)=NO1)(C(=O)NO)S(C)(=O)=O

>  <operator>
<

>  <IC50 [nM]>
0.1

$$$$
